Below, each entry is listed alongside its reported melting point.

smiles input: COc1ccc(F)cc1NC(=O)c1cc2ccccc2cc1O
melting point: 198 to 203 °C

smiles input: COc1ccc(Cl)c(NC(=O)c2cc3ccccc3cc2O)c1
melting point: 187 to 188 °C

smiles input: COc1cccc(F)c1NC(=O)c1cc2ccccc2cc1O
melting point: 138 to 144 °C

Req: Which melting point value is on record for `O=C(Nc1cc(Br)ccc1Br)c1cc2ccccc2cc1O` ?
Resp: 233 to 235 °C

Req: Which melting point value is on record for `O=C(Nc1ccc(Br)cc1Br)c1cc2ccccc2cc1O` ?
Resp: 241 to 243 °C

Req: Which melting point value is on record for `COc1cc(F)cc(NC(=O)c2cc3ccccc3cc2O)c1` ?
Resp: 227 to 230 °C

Req: Which melting point value is on record for `O=C(Nc1ccc(Cl)cc1F)c1cc2ccccc2cc1O` ?
Resp: 267 to 269 °C
